pKi: −log10 of the molar value.
Entries with reported pKi on UniProt:P00742
Sequence (P00742 235-488 limits assumed): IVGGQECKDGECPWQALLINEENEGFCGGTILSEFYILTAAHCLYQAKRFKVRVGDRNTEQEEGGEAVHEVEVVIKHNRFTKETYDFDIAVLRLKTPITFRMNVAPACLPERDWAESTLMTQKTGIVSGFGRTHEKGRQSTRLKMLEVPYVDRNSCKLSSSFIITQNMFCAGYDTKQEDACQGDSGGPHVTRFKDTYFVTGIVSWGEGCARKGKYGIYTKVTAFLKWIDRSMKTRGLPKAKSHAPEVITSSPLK
Sequence (P00742 41-179 partner limits assumed): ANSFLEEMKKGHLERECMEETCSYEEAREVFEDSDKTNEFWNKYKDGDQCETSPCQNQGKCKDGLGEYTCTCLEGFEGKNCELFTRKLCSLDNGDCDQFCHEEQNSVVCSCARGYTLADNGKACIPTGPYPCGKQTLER
measurementLabel: pKi

1) N=C(N)c1ccc2[nH]c(-c3nccn3CC(=O)NCCc3ccc(O)cc3)nc2c1: 8.22
2) N=C(N)c1ccc2[nH]c(-c3nccn3CCCCN3C(=O)c4ccccc4C3=O)nc2c1: 8.22
3) N=C(N)c1ccc2[nH]c(-c3nccn3CC(=O)NCCc3cccc4ccccc34)nc2c1: 7.52
4) COc1ccc(CCNC(=O)c2ccc(-c3nc4cc(C(=N)N)ccc4[nH]3)nc2)cc1Br: 8.70
5) Cc1c(-c2nc3cc(C(=N)N)ccc3[nH]2)ncn1Cc1ccccc1: 8.10

----------
Entries with reported Ki on UniProtKB P00742
measurementLabel: Ki (nM)

1) COc1ccc(CCNC(=O)c2ccnc(-c3nc4cc(C(=N)N)ccc4[nH]3)c2)cc1 [Compound 50]: 10
2) CCCn1cnc(-c2nc3cc(C(=N)N)ccc3[nH]2)c1C [Compound 20]: 7
3) CCOC(=O)Cn1ccnc1-c1nc2cc(C(=N)N)ccc2[nH]1 [Compound 33]: 5
4) N=C(N)c1ccc2[nH]c(-c3nccn3CCCC(=O)NCCc3ccc(Cl)cc3)nc2c1 [Compound 100]: 6
5) Cc1c(-c2nc3cc(C(=N)N)ccc3[nH]2)ncn1CCCN1C(=O)c2ccccc2C1=O [Compound 36]: 5
